Target: T1, FcγRIIB (human, UniProt P31994 43-217, limits assumed)
T1 construct: also called CD32; not shown: His-tag fused to the C-terminus
T1 sequence (looked up): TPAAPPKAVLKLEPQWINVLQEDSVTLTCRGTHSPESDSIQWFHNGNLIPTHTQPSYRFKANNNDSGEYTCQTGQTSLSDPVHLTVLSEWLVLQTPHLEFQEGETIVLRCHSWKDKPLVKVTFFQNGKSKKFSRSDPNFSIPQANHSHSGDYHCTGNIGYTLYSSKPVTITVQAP
Assay: SPR, Fc captured on Protein A, receptor injected; steady-state analysis
measured endpoint: pKd
Keep it numeric: pKd is minus log10 of the concentration in mol/L.

Answered examples (5):
IgG1 Fc variant Fc-290^hg (other, N-linked glycans at Asn297 and at engineered Asn290 (IgG1 heavy chain positions), KPR at 290-292 replaced by NST) EPKSCDKTHTCPPCPAPELLGGPSVFLFPPKPKDTLMISRTPEVTCVVVDVSHEDPEVKFNWYVDGVEVHNAKTNSTEEQYNSTYRVVSVLTVLHQDWLNGKEYKCKVSNKALPAPIEKTISKAKGQPREPQVYTLPPSREEMTKNQVSLTCLVKGFYPSDIAVEWESNGQPENNYKTTPPVLDSDGSFFLYSKLTVDKSRWQQGNVFSCSVMHEALHNHYTQKSLSLSPGK | 4.73
IgG1 Fc variant Fc-226^hg/290^hg/S298A (other, N-linked glycans at Asn297 and at engineered Asn226 and Asn290 (IgG1 heavy chain positions)) EPKSCDKTHTNSTCPAPELLGGPSVFLFPPKPKDTLMISRTPEVTCVVVDVSHEDPEVKFNWYVDGVEVHNAKTNSTEEQYNATYRVVSVLTVLHQDWLNGKEYKCKVSNKALPAPIEKTISKAKGQPREPQVYTLPPSREEMTKNQVSLTCLVKGFYPSDIAVEWESNGQPENNYKTTPPVLDSDGSFFLYSKLTVDKSRWQQGNVFSCSVMHEALHNHYTQKSLSLSPGK | 3.99
IgG1 Fc variant Fc-226^hg/290^hg/S298A/E333A/K334A (other, N-linked glycans at Asn297 and at engineered Asn226 and Asn290 (IgG1 heavy chain positions)) EPKSCDKTHTNSTCPAPELLGGPSVFLFPPKPKDTLMISRTPEVTCVVVDVSHEDPEVKFNWYVDGVEVHNAKTNSTEEQYNATYRVVSVLTVLHQDWLNGKEYKCKVSNKALPAPIAATISKAKGQPREPQVYTLPPSREEMTKNQVSLTCLVKGFYPSDIAVEWESNGQPENNYKTTPPVLDSDGSFFLYSKLTVDKSRWQQGNVFSCSVMHEALHNHYTQKSLSLSPGK | 4.19
Fc-S298A/E333A/K334A (other, N-linked glycan at Asn297) EPKSCDKTHTCPPCPAPELLGGPSVFLFPPKPKDTLMISRTPEVTCVVVDVSHEDPEVKFNWYVDGVEVHNAKTKPREEQYNATYRVVSVLTVLHQDWLNGKEYKCKVSNKALPAPIAATISKAKGQPREPQVYTLPPSREEMTKNQVSLTCLVKGFYPSDIAVEWESNGQPENNYKTTPPVLDSDGSFFLYSKLTVDKSRWQQGNVFSCSVMHEALHNHYTQKSLSLSPGK | 5.15
IgG1 Fc variant Fc-226^hg/290^hg (other, N-linked glycans at Asn297 and at engineered Asn226 and Asn290 (IgG1 heavy chain positions), Both CPP (226-228) and KPR (290-292) replaced by NST) EPKSCDKTHTNSTCPAPELLGGPSVFLFPPKPKDTLMISRTPEVTCVVVDVSHEDPEVKFNWYVDGVEVHNAKTNSTEEQYNSTYRVVSVLTVLHQDWLNGKEYKCKVSNKALPAPIEKTISKAKGQPREPQVYTLPPSREEMTKNQVSLTCLVKGFYPSDIAVEWESNGQPENNYKTTPPVLDSDGSFFLYSKLTVDKSRWQQGNVFSCSVMHEALHNHYTQKSLSLSPGK | 4.29

Proceed to the following item.
Reported pKd ( Fc-226^hg/290^hg/E333A/K334A (other, N-linked glycans at Asn297 and at engineered Asn226 and Asn290 (IgG1 heavy chain positions)) EPKSCDKTHTNSTCPAPELLGGPSVFLFPPKPKDTLMISRTPEVTCVVVDVSHEDPEVKFNWYVDGVEVHNAKTNSTEEQYNSTYRVVSVLTVLHQDWLNGKEYKCKVSNKALPAPIAATISKAKGQPREPQVYTLPPSREEMTKNQVSLTCLVKGFYPSDIAVEWESNGQPENNYKTTPPVLDSDGSFFLYSKLTVDKSRWQQGNVFSCSVMHEALHNHYTQKSLSLSPGK ) = 4.68
